Could you please report measured logD for the items listed next?
testName: physchem
experimentalSetup: octanol/water, pH 7.4
Description: Distribution coefficient, log D at pH 7.4 by shake-flask method
Field format: numeric only.

Fill in logD for record CN1[C@@H]2CC[C@@H]1[C@@H](c1cnc(F)c(-c3ccc(F)nc3)c1)C2 (racemic)
0.96

Fill in logD for record CN1[C@@H]2CC[C@@H]1[C@@H](c1cncc(-c3ccc(F)nc3)c1)C2 (racemic)
0.45

Fill in logD for record CN1[C@@H]2CC[C@@H]1[C@@H](c1cnc(Cl)c(-c3ccnc(F)c3)c1)C2 (racemic)
1.26

Fill in logD for record CN1[C@@H]2CC[C@@H]1[C@@H](c1cnc(Cl)c(-c3ccc(F)nc3)c1)C2 (single isomer, unassigned)
1.42

Fill in logD for record Fc1ccc(-c2cc([C@H]3C[C@H]4CC[C@H]3N4)cnc2Cl)cn1 (racemic)
0.68

Fill in logD for record CN1[C@@H]2CC[C@@H]1[C@@H](c1cnc(F)c(-c3ccc(C#N)nc3)c1)C2 (racemic)
0.64
